Parameter: IC50. Scope: all listed entries.
target-under-test: h-11βHSD1 (Homo sapiens, UniProt P28845)
Sequence (P28845 whole entry): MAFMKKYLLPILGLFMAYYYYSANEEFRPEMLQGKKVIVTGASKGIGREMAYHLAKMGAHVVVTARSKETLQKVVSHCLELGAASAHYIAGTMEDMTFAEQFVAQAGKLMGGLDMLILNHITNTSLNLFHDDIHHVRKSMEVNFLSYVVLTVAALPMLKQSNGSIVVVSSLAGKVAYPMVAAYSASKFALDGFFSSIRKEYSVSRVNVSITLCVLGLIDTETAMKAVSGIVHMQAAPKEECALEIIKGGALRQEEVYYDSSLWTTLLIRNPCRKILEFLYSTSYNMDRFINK
measured-quantity: IC50 (nM)

- CC1(C)CC2CC(C)(CN2C(=O)c2ccc(OC3CCC(C(=O)O)C3)cc2)C1 (centres unmarked): 604
- O=C(NC1C2CC3CC(C2)CC1C3)c1ccc(N2CC3CC2CO3)cc1 (centres unmarked): 43
- O=C(NC1C2CC3CC(C2)CC1C3)c1ccc(OC2CCC(O)CC2)cc1 (centres unmarked): 75
- O=C(c1ccc(OCC2CCN(S(=O)(=O)c3ccccn3)CC2)cc1)N1CCCC2CCCCC21 (centres unmarked): 134
- CC1(C)CC2CC(C)(CN2C(=O)c2ccc(OC3CCC(C(=O)O)CC3)cc2)C1 (centres unmarked): 360
- O=C(c1ccc(N2[C@@H]3CC[C@H]2CC(Oc2ccccn2)C3)cc1)N1CCCC2CCCCC21 (some centres unmarked): 359
- CN(C(=O)c1ccc(OCC2CCN(S(=O)(=O)c3cn(C)cn3)CC2)cc1)C1C2CC3CC1CC(O)(C3)C2 (centres unmarked): 2270
- O=C(O)C1CCC(Oc2ccc(C(=O)N3CC4CCC(CC4)C3)cc2)CC1 (centres unmarked): 1450

----------
pIC50: −log10 of the molar value.
// endpoint pIC50 / system h-11βHSD1 (Homo sapiens, UniProt P28845)
measured-quantity: pIC50

* O=C(O)C1CCC(Oc2ccc(C(=O)N3CC4CCC(CC4)C3)cc2)C1 (stereo not shown) | 5.85
* CN(C(=O)c1ccc(OC2CCC(NC(=O)C3CC3)CC2)cc1)C1C2CC3CC1CC(O)(C3)C2 (stereo not shown) | 5.78
* CN(C(=O)c1ccc(OC2CCC(NS(=O)(=O)c3ccccn3)CC2)cc1)C1C2CC3CC1CC(O)(C3)C2 (stereo not shown) | 5.95
* O=C(NC1CCC(Oc2ccc(C(=O)N3C4CCC3CC(O)C4)cc2)CC1)C1CC1 (stereo not shown) | 5.97
* CC(C)(C)OC(=O)N1C[C@@H]2CC1CN2c1ccc(C(=O)N2CC3CCC(CC3)C2)cc1 (stereo in doubt) | 6.41
* CN(C)C(=O)C1CCC(Oc2ccc(C(=O)N3CC4(C)CC3CC(C)(C)C4)cc2)CC1 (stereo not shown) [Example 12a] | 6.95
* NC(=O)C1CCC(Oc2ccc(C(=O)N3CCCC4CCCCC43)cc2)CC1 (stereo not shown) [Example 13a] | 7.14
